All values here come from patent US7368477B2.

Consider the following compounds; for each one, report its pKi.
targetOrTestSystem: human 5-hydroxytryptamine-2C (h5-HT2C) receptor (Homo sapiens)
Construct: expressed in transfected cells; host or cells: CHO (Chinese Hamster Ovary) cells; membrane preparation
protocolSummary: [125I]DOI binding to membranes of CHO cells expressing the human 5-HT2C receptor
assayContext: read-out: 5-HT2C Binding Ki avg
pKi: −log10 of the molar value.

Lookup: State its pKi on human 5-hydroxytryptamine-2C (h5-HT2C) receptor (Homo sapiens): "COc1ccccc1-c1cc(Cl)cc2cc(CN)oc12"
Found: 8.00 to 9.00

Lookup: State its pKi on human 5-hydroxytryptamine-2C (h5-HT2C) receptor (Homo sapiens): "COc1ccccc1-c1cc(F)cc2cc(CN)oc12"
Found: 8.00 to 9.00

Lookup: State its pKi on human 5-hydroxytryptamine-2C (h5-HT2C) receptor (Homo sapiens): "Cc1ccc(Cl)cc1-c1cc(F)cc2cc(CN)oc12"
Found: 8.00 to 9.00

Lookup: State its pKi on human 5-hydroxytryptamine-2C (h5-HT2C) receptor (Homo sapiens): "NCc1cc2cc(Cl)cc(-c3ccccc3F)c2o1"
Found: 8.00 to 9.00

Lookup: State its pKi on human 5-hydroxytryptamine-2C (h5-HT2C) receptor (Homo sapiens): "Cc1ccccc1-c1cccc2cc(CN)oc12"
Found: 8.00 to 9.00

Lookup: State its pKi on human 5-hydroxytryptamine-2C (h5-HT2C) receptor (Homo sapiens): "NCc1cc2cc(Cl)cc(-c3ccccc3C(F)(F)F)c2o1"
Found: 7.00 to 8.00

Lookup: State its pKi on human 5-hydroxytryptamine-2C (h5-HT2C) receptor (Homo sapiens): "I.NCc1cc2cc(Cl)cc(-c3ccccc3)c2o1"
Found: 7.00 to 8.00

Lookup: State its pKi on human 5-hydroxytryptamine-2C (h5-HT2C) receptor (Homo sapiens): "NCc1cc2ccc(Cl)c(-c3ccccc3Cl)c2o1"
Found: 9.00 to 11.00

Lookup: State its pKi on human 5-hydroxytryptamine-2C (h5-HT2C) receptor (Homo sapiens): "Cc1cc(Cl)ccc1-c1cc(F)cc2cc(CN)oc12"
Found: 8.00 to 9.00

---

Consider the following molecules; for each one, report its pEC50.
targetOrTestSystem: UniProt P28335
protocolSummary: Calcium mobilization (FLIPR) in CHO cells stably expressing the human 5-HT2C receptor
assayContext: calcium mobilization, h5-HT2C CHO cells; read-out: 5-HT2C Function EC50
pEC50: −log10 of the molar value.

Lookup: What does the data say about its pEC50? Entry: "Cc1ccccc1-c1cc(F)cc2cc(CN)oc12"
Found: > 8.00

Lookup: What does the data say about its pEC50? Entry: "NCc1cc2cccc(-c3c(Cl)cccc3Cl)c2o1"
Found: > 8.00

Lookup: What does the data say about its pEC50? Entry: "COc1ccccc1-c1cc(F)cc2cc(CN)oc12"
Found: 6.70 to 8.00

Lookup: What does the data say about its pEC50? Entry: "NCc1cc2cc(F)cc(-c3c(Cl)cccc3Cl)c2o1"
Found: > 8.00

Lookup: What does the data say about its pEC50? Entry: "COc1ccccc1-c1cc(Cl)cc2cc(CN)oc12"
Found: 6.70 to 8.00

Lookup: What does the data say about its pEC50? Entry: "Cc1ccccc1-c1cccc2cc(CN)oc12"
Found: > 8.00

Lookup: What does the data say about its pEC50? Entry: "NCc1cc2cc(F)cc(-c3ccc(Cl)cc3Cl)c2o1"
Found: > 8.00

Lookup: What does the data say about its pEC50? Entry: "I.NCc1cc2cc(Cl)cc(-c3ccccc3)c2o1"
Found: 5.70 to 6.70

Lookup: What does the data say about its pEC50? Entry: "Cc1cc(Cl)ccc1-c1cc(F)cc2cc(CN)oc12"
Found: 6.70 to 8.00

Lookup: What does the data say about its pEC50? Entry: "NCc1cc2cc(Cl)cc(-c3ccccc3F)c2o1"
Found: 5.70 to 6.70

Lookup: What does the data say about its pEC50? Entry: "Cc1ccccc1-c1cc(Cl)cc2cc(CN)oc12"
Found: 6.70 to 8.00

Lookup: What does the data say about its pEC50? Entry: "NCc1cc2cc(Cl)cc(-c3ccccc3C(F)(F)F)c2o1"
Found: 5.70 to 6.70

Lookup: What does the data say about its pEC50? Entry: "NCc1cc2ccc(Cl)c(-c3ccccc3Cl)c2o1"
Found: > 8.00

Lookup: What does the data say about its pEC50? Entry: "NCc1cc2cc(F)cc(-c3cc(Cl)ccc3Cl)c2o1"
Found: > 8.00

Lookup: What does the data say about its pEC50? Entry: "Cc1ccc(Cl)cc1-c1cc(F)cc2cc(CN)oc12"
Found: 6.70 to 8.00

Lookup: What does the data say about its pEC50? Entry: "NCc1cc2cc(Cl)cc(-c3ccccc3Cl)c2o1"
Found: > 8.00

---

targetOrTestSystem: human 5-HT2C receptor (Homo sapiens, UniProt P28335)
protocolSummary: Calcium mobilization (FLIPR) in CHO cells stably expressing the human 5-HT2C receptor
Assay type: cell-based
assayContext: CHO; read-out: 5-HT2C Function EMax (%)
Consider the following compounds; for each one, report its Emax.
// unit must come after the numeric part

Lookup: What does the data say about its Emax? Entry: Cc1ccccc1-c1cccc2cc(CN)oc12 [Compound 12]
Found: 70%

Lookup: What does the data say about its Emax? Entry: NCc1cc2cc(Cl)cc(-c3ccccc3C(F)(F)F)c2o1 [Compound 6]
Found: 90%

Lookup: What does the data say about its Emax? Entry: NCc1cc2cc(Cl)cc(-c3ccccc3F)c2o1 [Compound 2]
Found: 80%

Lookup: What does the data say about its Emax? Entry: NCc1cc2cc(F)cc(-c3cc(Cl)ccc3Cl)c2o1 [Compound 11]
Found: 70%

Lookup: What does the data say about its Emax? Entry: NCc1cc2cccc(-c3c(Cl)cccc3Cl)c2o1 [Compound 15]
Found: 90%

Lookup: What does the data say about its Emax? Entry: COc1ccccc1-c1cc(F)cc2cc(CN)oc12 [Compound 10]
Found: 80%

Lookup: What does the data say about its Emax? Entry: I.NCc1cc2cc(Cl)cc(-c3ccccc3)c2o1 [Compound 1]
Found: 70%

Lookup: What does the data say about its Emax? Entry: Cc1ccccc1-c1cc(F)cc2cc(CN)oc12 [Compound 8]
Found: 90%

Lookup: What does the data say about its Emax? Entry: NCc1cc2cc(Cl)cc(-c3ccccc3Cl)c2o1 [Compound 3]
Found: 100%

Lookup: What does the data say about its Emax? Entry: COc1ccccc1-c1cc(Cl)cc2cc(CN)oc12 [Compound 5]
Found: 90%

Lookup: What does the data say about its Emax? Entry: NCc1cc2cc(F)cc(-c3ccc(Cl)cc3Cl)c2o1 [Compound 9]
Found: 90%

---

Consider the following compounds; for each one, report its melting point.

Lookup: What does the data say about its melting point? Entry: "Cc1cc(Cl)ccc1-c1cc(F)cc2cc(CN)oc12"
Found: 172 to 174 °C

Lookup: What does the data say about its melting point? Entry: "Cc1ccc(Cl)cc1-c1cc(F)cc2cc(CN)oc12"
Found: 208 to 210 °C

Lookup: What does the data say about its melting point? Entry: "I.NCc1cc2cc(Cl)cc(-c3ccccc3)c2o1"
Found: > 225 °C

Lookup: What does the data say about its melting point? Entry: "NCc1cc2cc(Cl)cc(-c3ccccc3C(F)(F)F)c2o1"
Found: 215 to 218 °C (dec.)

Lookup: What does the data say about its melting point? Entry: "Cc1ccccc1-c1cccc2cc(CN)oc12"
Found: 222 to 224 °C

Lookup: What does the data say about its melting point? Entry: "NCc1cc2ccc(Cl)c(-c3ccccc3Cl)c2o1"
Found: 208 to 210 °C

Lookup: What does the data say about its melting point? Entry: "NCc1cc2ccc(F)c(-c3ccccc3Cl)c2o1"
Found: > 250 °C

Lookup: What does the data say about its melting point? Entry: "NCc1cc2cccc(-c3c(Cl)cccc3Cl)c2o1"
Found: 260 to 262 °C

Lookup: What does the data say about its melting point? Entry: "NCc1cc2cc(F)cc(-c3cc(Cl)ccc3Cl)c2o1"
Found: 245 to 247 °C

Lookup: What does the data say about its melting point? Entry: "COc1ccccc1-c1cc(F)cc2cc(CN)oc12"
Found: 128 to 130 °C

---

targetOrTestSystem: human 5-hydroxytryptamine-2C (h5-HT2C) receptor (Homo sapiens)
Construct: expressed in transfected cells; host or cells: CHO (Chinese Hamster Ovary) cells; membrane preparation
Sequence (P28335 33-458): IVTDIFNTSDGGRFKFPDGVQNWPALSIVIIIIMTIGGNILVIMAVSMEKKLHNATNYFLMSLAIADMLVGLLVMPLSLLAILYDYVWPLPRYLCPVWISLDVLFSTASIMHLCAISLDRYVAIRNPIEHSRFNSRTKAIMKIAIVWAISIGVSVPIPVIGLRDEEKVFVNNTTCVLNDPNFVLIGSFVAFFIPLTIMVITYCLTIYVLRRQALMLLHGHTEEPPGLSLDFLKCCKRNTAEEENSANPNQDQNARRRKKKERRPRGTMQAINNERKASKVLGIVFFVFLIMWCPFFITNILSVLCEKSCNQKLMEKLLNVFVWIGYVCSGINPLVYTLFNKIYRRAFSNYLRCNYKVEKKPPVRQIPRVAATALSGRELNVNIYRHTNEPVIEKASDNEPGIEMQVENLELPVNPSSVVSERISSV
protocolSummary: [125I]DOI binding to membranes of CHO cells expressing the human 5-HT2C receptor
assayContext: reference compounds; [125I]DOI displacement, h5-HT2C CHO membranes; read-out: Ki (95% confidence interval)
parameter: pKi
In plain terms, pKi is the concentration in mol/L turned into minus its base-10 logarithm.

Lookup: What does the data say about its pKi? Entry: CSc1ccc2c(c1)C(N1CCN(C)CC1)Cc1ccccc1S2 (stereo not shown) [Methiothepin, reference compound]
Found: 8.34
